Reported melting point values for the following compounds.

Known melting point results, listed for orientation:
compound	quantity_name	reported
O=Cc1c2ccccc2cc2c(C=O)c3ccccc3cc12	melting point	247 to 250 °C
CCC(C)(C)NC(=O)n1nc(C)n(NC)c1=O	melting point	98 °C
CCCCCCCCCCCCCCCCCCNC(=O)OCC(CN)COC (stereo not given)	melting point	84 to 85 °C
CCCCCc1c(-c2ccc3cc(OCc4nnn[nH]4)ccc3c2)n(Cc2ccccc2)c2ccccc12	melting point	109 to 112 °C
CC(C)(C)CNc1nc(Nc2cccc(NS(C)(=O)=O)c2)nc2[nH]cnc12	melting point	270 to 273 °C
Cc1csc(C(=O)OC(C)C)c1S(=O)(=O)Cl	melting point	58 °C
Cc1ccc(N2CN(C)CNC2=S)cc1	melting point	176 to 178 °C
COc1cc(C=CC(=O)c2c(OCC=C(C)C)ccc3c(C)cc(=O)oc23)cc(OC)c1OC	melting point	148 to 150 °C

## Input I'd like to know its melting point. The compound in question is `O=C(N1CCC(N2CCOCC2)CC1)C12CC(c3ccccc31)c1ccccc12`
## Output 179 to 180 °C

## Input Next record, please: `COC(=O)c1ccc(CN2CCOc3ccc(NC(=O)CC4CCCC4)cc32)c(OC)c1`
## Output 152 to 153 °C

## Input Next record, please: `CCOC(=O)c1cn(C)c2c(=O)c3ccccc3oc2c1=O`
## Output 251 to 254 °C

## Input Next record, please: `O=C1Cc2cc3c(cc2C(c2cccc([N+](=O)[O-])c2)=NN1)OCO3`
## Output 251 to 253 °C

## Input Next record, please: `CC(C)(C)[Si](C)(C)OC1CN(c2ccc(NC(=O)OCc3ccccc3)cc2F)C1`
## Output 91 to 93 °C

## Input Next record, please: `O=C(Nc1nc(C(C(=O)O)=C(Cl)C(=O)OCc2ccccc2)cs1)OCc1ccccc1`
## Output 173 to 174 °C

## Input Next record, please: `Cc1cc(C2=NN(C(=O)OC(C)(C)C)[C@H](C)Cc3cc4c(cc32)OCO4)cc(C)c1[N+](=O)[O-]`
## Output 222 to 223 °C

---

Reported melting point values for the following compounds.

Known melting point results, listed for orientation:
compound	melting point
O=S(=O)(Nc1ccc(Cl)cc1C(=NOc1ccc(Cl)cc1)c1ccccc1)C(F)(F)F	86 to 87 °C
Cc1cc(SC2CC(=O)N(c3ccccc3)C2=O)cc(C(C)(C)C)c1N (stereo not given)	126 to 128 °C
CC(=O)N1CCN(c2c(Cl)cncc2Cl)CC1	144 to 146 °C

## Input I'd like to know its melting point. The compound in question is `COc1c(CCC(=O)O)cccc1Oc1ccccc1C`
## Output 71 to 75 °C

## Input Next record, please: `CS(=O)(=O)Nn1c(=O)[nH]c2cc(C(F)(F)F)c(N3CCC(=O)CC3)cc2c1=O`
## Output 238 to 242 °C

---

quantity_name: melting point

compound	reported
CC(=Cc1cccc(SC(F)(F)F)c1)[N+](=O)[O-]	48 °C
CCCCNC(=O)Nc1ccccc1C(=O)OC	84 to 85 °C
Cc1cccc(C2COc3c(ccc(O)c3O)C2)c1 (centres undefined)	95 to 96 °C
Cc1cccc(-c2nc3cccnn3c2-c2ccnc(Nc3ccccc3C)c2)c1	208 to 209 °C
Cc1c(C)c2c(c(C)c1NC(=O)NCCCCO)C(c1ccc(C(C)C)cc1)CO2 (centres undefined)	145 to 146 °C
COc1ccc2cc(-c3oc4ccccc4c3C(O)CC3CCCC3)ccc2c1 (centres undefined)	176 to 177 °C
CCOC(=O)C(Cc1ccc(C(=O)C(C)(C)C)cc1)Cc1ccc(C(=O)C(C)(C)C)cc1	60 to 63 °C
CCOC(=O)CC[C@H](NC(=O)c1ccc(NS(=O)(=O)c2cc3c(cc2Br)CCc2nc(N)[nH]c(=O)c2-3)cc1)C(=O)OCC	175 °C

## Input I'd like to know its melting point. The compound in question is `COC(=O)c1sc(C)c(N)c1C`
## Output 88 to 89 °C

## Input Next record, please: `Cc1ncccc1OCCO`
## Output 75 to 80 °C

## Input Next record, please: `N#Cc1ccc(C(=O)N2CCc3[nH]c4c(cnc5cc(Cl)ccc54)c3C2)cc1`
## Output > 300 °C

## Input Next record, please: `Nc1cccc(-c2ccc(CCN3CCN(C(=O)Cc4ccc(Cl)cc4)CC3)cc2)n1`
## Output 205 °C

## Input Next record, please: `CNC(=S)N(C)c1ccc(OC)nc1`
## Output 116 °C

## Input Next record, please: COc1ccc(C2(C#N)CCC(=CC(=O)O)CC2)c2c1OCCO2 (centres undefined)
## Output 203 to 204 °C

---

Reported melting point values for the following compounds.

Known melting point results, listed for orientation:
compound	melting point
CC(=O)SCC(CC(C)C)C(=O)NCCN1CCOCC1 (configuration not stated)	54 to 59 °C
Cc1ccc(C(=O)O)c(NC(=O)C(F)(F)F)c1	178 to 180 °C
O=S(=O)(Cc1ccc(Cl)c(Cl)c1)Cc1ccc(Cl)c(Cl)c1	177 °C
CSN=C1C(=O)N2C1SC(C)(C)C2C(=O)OCC(Cl)(Cl)Cl (configuration not stated)	129 to 130 °C
COc1cc2cc(CO)c(CO)c(-c3ccnc(Nc4ccccc4CCCO)c3)c2cc1OC	156 to 158 °C

## Input I'd like to know its melting point. The compound in question is `O=[N+]([O-])c1ccc(-c2oncc2CCCO)cc1`
## Output 132 to 133 °C

## Input Next record, please: `CCc1nnc2c(Nc3ccccc3)nc3ccccc3n12`
## Output 172 to 174 °C

## Input Next record, please: CCC(OCc1ccc(-c2ccc(Cl)cc2)cc1)(C(=O)O)c1ccccc1 (configuration not stated)
## Output 128 to 130 °C

## Input Next record, please: `CCOC(=O)C1CCN(c2ccc(/C=C/C(=O)O)cc2)CC1`
## Output 212 °C

## Input Next record, please: `CCOP(=O)(O)Cc1ccc(NC(=O)N2CCN(c3ccc(NC(=O)Nc4cc(C)ccc4OC)cc3)CC2)c(C)c1`
## Output 165 to 173 °C

## Input Next record, please: `CC(=O)N(N)c1ccc(C(F)(F)F)cc1NC(=O)c1ccccc1`
## Output 212 to 214 °C

## Input Next record, please: `CC(C)(Oc1ccc([Si](C)(C)C)cc1)C(=O)O`
## Output 92 to 93 °C

## Input Next record, please: `CCOC(=O)c1c(-c2ccc(F)cc2)c(-c2ccc(F)cc2)cn1C(C)C`
## Output 49 °C

## Input Next record, please: `COc1ccc(C(=O)Nc2ccccc2)cc1NC(=S)Nc1ccc(F)cc1`
## Output 182 to 183 °C

## Input Next record, please: `C1=NC=C2CCNC=C12`
## Output 182 to 190 °C

## Input Next record, please: `Cc1csc2[nH]c(C(=O)c3ccccc3)cc12`
## Output 199 °C

---

Reported melting point values for the following molecules.

Known melting point results, listed for orientation:
molecule	melting point
O=C(O)C1=Cc2cc(Cl)cc(-c3ccccc3)c2OC1C(F)(F)F (stereo not given)	196 to 198 °C
N#Cc1cnn(-c2c(Cl)cc(Cl)cc2Cl)c1Cl	78 to 79 °C
Nc1cccc(C#CCCN2CCC(O)(c3ccc(Cl)cc3)CC2)c1	139 to 140 °C
CC(C)(C)OC(=O)CN1C(=O)C=C(CC(NC(=O)OC(C)(C)C)C(=O)OC(C)(C)C)C1=O (stereo not given)	88.5 to 89.5 °C

Could you now look at the following molecule, please?
## Input I'd like to know its melting point. The molecule in question is COC(=O)[C@@H]1CCC(c2cccc(O)c2)N1C(=O)CNC(=O)OCc1ccccc1 (stereo not given in full)
## Output 173 °C

---

quantity_name: melting point

Known melting point results, listed for orientation:
compound	melting point
CCc1cccc(C)c1CNc1cc(C(=O)NCCO)nc2c1nc(C)n2C	256 to 258 °C
CN1c2ccc(S(=O)(=O)N3CCOCC3)cc2S(=O)(=O)NC1C1CCCCC1 (stereo not drawn)	207 to 210 °C

Could you now look at the following compound, please?
## Input I'd like to know its melting point. The compound in question is `N#CCN1CCN(c2cccc(Cl)c2Cl)CC1`
## Output 89 to 92 °C

---

Reported melting point values for the following molecules.

molecule	melting point
COC(=O)C(C(=O)Nc1ccc(F)cc1)=C1SCS1	141 to 142 °C
O=C(CCCN1CCC2(CC1)OC(c1ccccc1)c1ccccc12)c1ccc(F)cc1 (stereo not drawn)	137 to 138 °C

## Input I'd like to know its melting point. The molecule in question is `COc1ccccc1C(=O)c1ccc(Cl)nc1`
## Output 46 to 47 °C

These measurements were taken from a melting point compilation (Tetko et al.; mined from patent text by program, amines drawn as free bases though some values may be those of a salt).
